System Tested: T1, HCV Core1-169 (hepatitis C virus (HCV-1), UniProt P26664 1-169)
T1 sequence: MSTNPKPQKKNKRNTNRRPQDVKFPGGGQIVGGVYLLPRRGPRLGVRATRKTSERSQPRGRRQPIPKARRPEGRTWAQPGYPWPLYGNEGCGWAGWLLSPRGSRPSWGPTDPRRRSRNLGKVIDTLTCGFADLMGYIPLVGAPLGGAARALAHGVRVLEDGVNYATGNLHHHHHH
Test Description: SPR sandwich, capture mAb C11-7
Readings of expected percent binding for the listed binders
Measurement Kind: expected percent binding

>>> endpoint_result("HCV 208A-293 (antibody, V domains shown) VH: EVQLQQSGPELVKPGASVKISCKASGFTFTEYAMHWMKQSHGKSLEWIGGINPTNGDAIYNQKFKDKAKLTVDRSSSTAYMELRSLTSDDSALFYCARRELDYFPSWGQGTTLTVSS VL: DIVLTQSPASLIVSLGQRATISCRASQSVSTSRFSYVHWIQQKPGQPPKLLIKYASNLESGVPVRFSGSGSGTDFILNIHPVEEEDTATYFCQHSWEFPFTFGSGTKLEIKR")
"20.9%"
>>> endpoint_result("HCV 208B-251 (antibody, V domains shown) VH: QLQQSGPVLVKPGASVKISCKTSGYTFTENAMHWVKQSHGKSLEWIGGVNPNNGDTIYNQKFKGKATLTVDKSSSTAFMELRSLTSEESPVYFCVRRELDFFDYWGQGTSVTVSS VL: DIVLTQSPASLAVSLGKKATISCRASQSVSTSRYSYMHWYQQKPGHPPKLLIKYASNLESGVPARFSGSGSGTDFTLNIHPVAEEDTAAYYCQHSWEFPFTFGSGTKLEIKR")
"20.1%"
>>> endpoint_result("HCV 208B-1094 (antibody, V domains shown) VH: EVQLQQSGPELVKPGASVKISCKTSGYTFTEYAMHWMKQSHGKSLEWIGGINPTNGDTIYNQRFKDKAKLTVDRSSSTAYMELRSLTSDDSALFYCARRELDYFASWGQGTTLTVSS VL: DIVLTQSPASLIVSLGQTATISCRASQSLSTSRFSYVHWIQQKPGQPPKLLIKYASNLESGVPVRFSGSGSGTDFTLNIHPVEEEDTATYFCQHSWEFPFTFGSGTKLKIKR")
"28.4%"
>>> endpoint_result("HCV 208A-133 (antibody, V domains shown) VH: QLQQSGPVLVGPGASVMISCKTSGYTFTENAMHWVEQSHGKSLEWIGGVNPNNGDTIFNQKFKGKATLTVDKSSSTAFMEFRSLTSEESTVYYCVRRELDFFDYWGQGTSVTVSS VL: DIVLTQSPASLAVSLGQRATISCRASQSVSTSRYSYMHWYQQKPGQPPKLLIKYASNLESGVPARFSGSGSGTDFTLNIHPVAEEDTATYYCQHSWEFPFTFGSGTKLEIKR")
"13.9%"
>>> endpoint_result("HCV 208A-692 (antibody, V domains shown) VH: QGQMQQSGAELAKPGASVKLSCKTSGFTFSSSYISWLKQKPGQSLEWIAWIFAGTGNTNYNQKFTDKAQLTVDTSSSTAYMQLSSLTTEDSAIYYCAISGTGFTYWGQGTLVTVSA VL: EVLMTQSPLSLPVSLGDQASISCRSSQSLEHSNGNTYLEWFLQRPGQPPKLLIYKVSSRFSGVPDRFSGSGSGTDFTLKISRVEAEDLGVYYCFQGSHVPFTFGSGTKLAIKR")
"≤ 1%"
